Target: purified prolyl oligopeptidase (Homo sapiens, UniProt P48147)
Construct: from tissue; host or cells: human blood cells: platelets or mononuclear cells, not specified
Sequence (P48147 1-710): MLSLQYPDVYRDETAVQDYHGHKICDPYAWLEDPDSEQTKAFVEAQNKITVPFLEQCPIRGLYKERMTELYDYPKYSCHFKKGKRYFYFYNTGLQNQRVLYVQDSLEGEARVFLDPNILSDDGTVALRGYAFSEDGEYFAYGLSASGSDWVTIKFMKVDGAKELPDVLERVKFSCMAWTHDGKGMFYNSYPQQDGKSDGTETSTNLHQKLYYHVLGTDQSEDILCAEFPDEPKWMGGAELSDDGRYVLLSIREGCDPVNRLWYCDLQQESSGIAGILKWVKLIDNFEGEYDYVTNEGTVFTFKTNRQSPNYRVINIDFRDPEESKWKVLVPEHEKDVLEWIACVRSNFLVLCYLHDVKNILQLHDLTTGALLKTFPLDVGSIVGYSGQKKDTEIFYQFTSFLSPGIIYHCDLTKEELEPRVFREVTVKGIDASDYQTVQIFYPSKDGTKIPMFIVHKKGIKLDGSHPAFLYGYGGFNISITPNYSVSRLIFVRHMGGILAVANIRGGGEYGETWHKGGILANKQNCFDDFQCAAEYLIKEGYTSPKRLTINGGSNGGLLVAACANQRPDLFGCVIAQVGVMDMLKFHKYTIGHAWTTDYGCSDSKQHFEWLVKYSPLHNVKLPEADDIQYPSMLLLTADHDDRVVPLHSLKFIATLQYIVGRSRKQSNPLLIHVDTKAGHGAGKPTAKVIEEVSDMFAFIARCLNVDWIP
Assay: biochemical
No end group written: not given here.
PROPERTY_LABEL: IC50
Remember to put the unit after the number in your answer.

What IC50 value was documented for this sequence, RPPGFSPFR [Bradykinin] ?
7 µM

----------
target: DPPIV (Homo sapiens, UniProt P27487); construct: from tissue; host or cells: prostasomes from human seminal plasma, purified on immobilized adenosine deaminase; assay: biochemical; type: biochemical; settings: 1 hour preincubation at room temperature; substrate Gly-Pro-4-Me-2-naphtylamine.HCl; Tris.HCl pH 8.3, 37° C.; inhibitory diastereoisomer unless marked *; read-out: IC50
Sequence (P27487 whole entry): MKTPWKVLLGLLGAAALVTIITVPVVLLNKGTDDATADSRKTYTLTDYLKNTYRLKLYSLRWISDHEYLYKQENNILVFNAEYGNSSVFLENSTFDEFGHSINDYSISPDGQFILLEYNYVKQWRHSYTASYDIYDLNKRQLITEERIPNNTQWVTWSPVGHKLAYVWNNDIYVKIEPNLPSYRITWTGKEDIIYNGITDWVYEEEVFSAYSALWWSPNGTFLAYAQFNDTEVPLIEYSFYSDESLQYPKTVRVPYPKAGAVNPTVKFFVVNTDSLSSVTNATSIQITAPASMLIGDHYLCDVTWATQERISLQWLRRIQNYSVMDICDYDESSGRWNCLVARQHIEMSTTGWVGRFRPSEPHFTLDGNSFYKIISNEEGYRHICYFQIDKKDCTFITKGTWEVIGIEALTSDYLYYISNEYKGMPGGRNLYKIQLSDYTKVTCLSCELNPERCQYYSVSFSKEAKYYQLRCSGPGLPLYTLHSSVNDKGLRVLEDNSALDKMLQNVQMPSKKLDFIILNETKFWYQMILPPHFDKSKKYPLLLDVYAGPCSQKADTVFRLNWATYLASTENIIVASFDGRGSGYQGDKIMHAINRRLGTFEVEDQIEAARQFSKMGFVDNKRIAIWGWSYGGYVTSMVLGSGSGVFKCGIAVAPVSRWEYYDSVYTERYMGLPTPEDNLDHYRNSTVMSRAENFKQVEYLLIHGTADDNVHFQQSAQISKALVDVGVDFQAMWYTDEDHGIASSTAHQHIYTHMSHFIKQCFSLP
Exercise: for every item that follows, state its recorded pIC50.
pIC50 is defined as minus the log10 of a concentration measured in mol/L.

Reported pIC50 for DPPIV (Homo sapiens, UniProt P27487), given C[C@H](N)C(=O)N1CCCC1P(=O)(Oc1ccccc1)Oc1ccccc1.Cl (stereo partly drawn) [Ala-Pro-(OPh)2, hydrochloride] ?
2.70

And CC[C@H](C)[C@H](N)C(=O)N1CCCC1P(=O)(Oc1ccccc1)Oc1ccccc1.Cl (stereo partly drawn) ?
3.46

What about CC(C)(C)Oc1ccc(C[C@H](N)C(=O)N2CCCC2P(=O)(Oc2ccccc2)Oc2ccccc2)cc1 (stereo partly drawn) ?
3.00

----------
experiment: Functional stability of DPPIV inhibitors in human citrated plasma; type: in vitro ADME; conditions: 37° C.
Structures can show the parent of a compound that is named as a salt.
PROPERTY_LABEL: log10 of t1/2 in plasma (log10 of the value in h)
The figures below represent log10 of t1/2 in plasma, where t1/2 in plasma is stated in h.

# log10 of t1/2 in plasma lookup, item Cl.N[C@@H](Cc1ccccc1)C(=O)N1CCC[C@H]1P(=O)(Oc1ccccc1)Oc1ccccc1 [Phe-Pro^P -(OPh)2]
-0.15

Query Cl.Cl.N=C(N)NCCC[C@H](N)C(=O)N1CCCC1P(=O)(Oc1ccccc1)Oc1ccccc1 (stereo partly drawn) [(S)-Arg-(S,R)-Pro^P (OPh)2] next
0.28

Would you kindly repeat that for Cl.O=C([C@@H]1CCCN1)N1CCCC1P(=O)(Oc1ccccc1)Oc1ccccc1 (stereo partly drawn) [Pro-Pro^P -(OPh)2] ?
0.61

What do you have for Cl.N[C@@H](Cc1ccc(F)cc1)C(=O)N1CCC[C@H]1P(=O)(Oc1ccccc1)Oc1ccccc1 [pF-Phe-Pro^P -(OPh)2] ?
-0.15

Another compound to check: N[C@@H](CC1CCCCC1)C(=O)N1CCC[C@H]1P(=O)(Oc1ccccc1)Oc1ccccc1 [Cyclohexylalanine-Pro^P -(OPh)2, hydrochloride]
-0.52

Next compound up: CC[C@H](C)[C@H](N)C(=O)N1CCC[C@H]1P(=O)(Oc1ccccc1)Oc1ccccc1.Cl [(S)-Ile-(R)-Pro^P (OPh)2]
0.15

----------
I'd be grateful if you could share measured pIC50 for these entries.
biological target: DPPIV (Homo sapiens, UniProt P27487); construct: from tissue; host or cells: prostasomes from human seminal plasma, purified on immobilized adenosine deaminase; assay: biochemical; type: biochemical
Convention used: pIC50 is expressed as -log10 of the molar concentration.

Can you look up the measured pIC50 of Cl.N[C@@H](Cc1ccc(F)cc1)C(=O)N1CCC[C@H]1P(=O)(Oc1ccccc1)Oc1ccccc1 [pF-Phe-Pro^P -(OPh)2, hydrochloride] for me?
4.00

Similarly, Cl.N[C@@H](Cc1ccccc1)C(=O)N1CCC[C@H]1P(=O)(Oc1ccccc1)Oc1ccccc1 [Phe-Pro^P -(OPh)2, hydrochloride] ?
4.15

----------
assay: Functional stability of DPPIV inhibitors in the reaction medium (buffer); assay type: physicochemical; conditions: 50 mM TRIS buffer pH 8.3, 37° C.
Structures can show the parent of a compound that is named as a salt.
Exercise: for every item that follows, state its recorded t1/2 in buffer.
# number only, unit h dropped from output

Tell me the measured t1/2 in buffer of CC[C@H](C)[C@H](N)C(=O)N1CCC[C@H]1P(=O)(Oc1ccccc1)Oc1ccccc1.Cl [(S)-Ile-(R)-Pro^P (OPh)2] , please.
10

Also check Cl.O=C([C@@H]1CCCN1)N1CCCC1P(=O)(Oc1ccccc1)Oc1ccccc1 (stereo partly drawn)
3.5

Please give the result for Cl.Cl.N=C(N)NCCC[C@H](N)C(=O)N1CCCC1P(=O)(Oc1ccccc1)Oc1ccccc1 (stereo partly drawn) [(S)-Arg-(S,R)-Pro^P (OPh)2] too.
2.6

Consider next the compound N[C@@H](CC1CCCCC1)C(=O)N1CCC[C@H]1P(=O)(Oc1ccccc1)Oc1ccccc1 [Cyclohexylalanine-Pro^P -(OPh)2, hydrochloride] in the same way.
4.5

Next compound up: `Cl.N[C@@H](Cc1ccc(F)cc1)C(=O)N1CCC[C@H]1P(=O)(Oc1ccccc1)Oc1ccccc1`
8.9

Another: `Cl.N[C@@H](Cc1ccccc1)C(=O)N1CCC[C@H]1P(=O)(Oc1ccccc1)Oc1ccccc1`
6
